// pIC50 lookup, one value per entry
TESTED_ON: hGlyT2 (Homo sapiens, UniProt Q9Y345)
Construct: crude membrane fractions
METHOD_DESCRIPTION: GlyT2 MS Binding Assays: competition experiments with Org25543 as reporter ligand
pIC50: −log10 of the molar value.

CN(CC[C@@H](Oc1ccc(-c2ccccc2)cc1)c1ccc(F)cc1)CC(=O)O	< 3.22

Query: Looking for the measured pIC50 of `O=C(O)CCCCSc1ncnc2[nH]c(O)nc12` , can you help?
Reply: < 3.22

====

TESTED_ON: GlyT2 (Homo sapiens, UniProt Q9Y345)
Construct: crude membrane fractions
METHOD_DESCRIPTION: preliminary Org25543 saturation experiments in absence or presence of glycine
EXPERIMENTAL_SETUP: without glycine; read-out: K d of Org25543 (representative preliminary saturation experiment)
RESULT_TYPE: Kd (nM)
Write the answer as a number in nM, unit excluded.

Query: Looking for the measured Kd of COc1cc(C(=O)NCC2(N(C)C)CCCC2)cc(OC)c1OCc1ccccc1 [Org25543] , can you help?
Reply: 5.18

====

TESTED_ON: hGlyT2 (Homo sapiens)
Construct: host or cells: HEK293 cells stably expressing hGlyT2; crude membrane fractions
Sequence (Q9Y345 1-797): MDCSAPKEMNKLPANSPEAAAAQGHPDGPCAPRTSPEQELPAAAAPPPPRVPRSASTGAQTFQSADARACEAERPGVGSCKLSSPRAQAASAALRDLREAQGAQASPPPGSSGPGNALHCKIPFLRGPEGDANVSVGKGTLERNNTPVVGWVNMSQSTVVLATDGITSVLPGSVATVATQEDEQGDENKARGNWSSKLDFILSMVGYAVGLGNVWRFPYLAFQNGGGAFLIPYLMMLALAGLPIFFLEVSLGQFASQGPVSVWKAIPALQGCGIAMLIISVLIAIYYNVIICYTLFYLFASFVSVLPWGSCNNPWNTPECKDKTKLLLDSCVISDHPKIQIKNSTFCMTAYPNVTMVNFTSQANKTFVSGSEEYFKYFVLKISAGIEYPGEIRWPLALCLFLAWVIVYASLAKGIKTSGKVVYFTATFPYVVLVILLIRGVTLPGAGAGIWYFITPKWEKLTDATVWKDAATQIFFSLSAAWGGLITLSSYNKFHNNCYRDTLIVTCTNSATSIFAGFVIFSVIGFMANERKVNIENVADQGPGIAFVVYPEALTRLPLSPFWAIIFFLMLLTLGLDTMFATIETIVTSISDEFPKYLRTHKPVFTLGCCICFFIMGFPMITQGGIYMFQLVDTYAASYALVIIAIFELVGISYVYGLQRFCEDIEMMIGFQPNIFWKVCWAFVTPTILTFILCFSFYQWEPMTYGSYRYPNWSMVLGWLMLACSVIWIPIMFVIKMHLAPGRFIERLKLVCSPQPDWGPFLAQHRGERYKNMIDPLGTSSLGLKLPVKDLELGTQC
METHOD_DESCRIPTION: GlyT2 MS Binding Assays: competition experiments with Org25543 as reporter ligand
EXPERIMENTAL_SETUP: read-out: Affinity, pKi (GlyT2 MS Binding Assays) (converted)
RESULT_TYPE: Ki (µM)
Write the answer as a number in µM, unit excluded.

CN(C)CCCN1c2ccccc2Sc2ccc(Cl)cc21 [chlorpromazine]	28.2
COc1cc(C(=O)NCC2(N(C)C)CCCCC2)cc(OC)c1OCc1ccccc1 [compound 8]	0.0417
CN(CCC(Oc1ccc(C(=O)c2nccs2)cc1)c1ccc(Cl)cc1)CC(=O)O (stereo not shown) [CP‐802,079]	22.9
COC(=O)CN [glycine methyl ester]	77600

Query: Fill in the recorded Ki for this molecule, with hGlyT2 (Homo sapiens) as test system: CCCCCCCC/C=C\CCCCCCCC(=O)NCC(=O)O [N‐oleoylglycine, N‐(1‐oxo‐9‐octadecenyl)‐(Z)‐glycine]
Reply: 2.34

Query: Fill in the recorded Ki for this molecule, with hGlyT2 (Homo sapiens) as test system: N[C@@H](COC(c1cccc(F)c1)c1ccccc1OCc1ccccc1)C(=O)O (stereo partly shown) [ALX1393]
Reply: 1.17

Query: Fill in the recorded Ki for this molecule, with hGlyT2 (Homo sapiens) as test system: CCCCCCCC/C=C\CCCCCCCC(=O)O[C@H](CC(=O)[O-])C[N+](C)(C)C [oleoyl‐L‐carnitine, Oleoyl‐L‐carnitine]
Reply: 2.63

Query: Fill in the recorded Ki for this molecule, with hGlyT2 (Homo sapiens) as test system: O=C(O)C1CCCN1 (racemic) [DL‐proline]
Reply: 31600

Query: Fill in the recorded Ki for this molecule, with hGlyT2 (Homo sapiens) as test system: CC(C)c1nnc(-c2ccc(-c3ccccc3)nc2)n1-c1cccc2nonc12 [ASP2535]
Reply: 1.02

====

TESTED_ON: hGlyT2 (Homo sapiens)
Construct: host or cells: HEK293 cells stably expressing hGlyT2; crude membrane fractions
METHOD_DESCRIPTION: GlyT2 MS Binding Assays: competition experiments with Org25543 as reporter ligand
EXPERIMENTAL_SETUP: up to highest concentration (sarcosine, L-serine, DL-leucine mM; Org24598 300 μM; LY2365109 10 μM; ALX5407 600 μM)
RESULT_TYPE: affinity / inhibition of Org25543 binding, in words

CN(CCOc1ccc(-c2ccc3c(c2)OCO3)cc1C(C)(C)C)CC(=O)O	hardly any affinity
CN(CC[C@@H](Oc1ccc(C(F)(F)F)cc1)c1ccccc1)CC(=O)O	hardly any affinity

====

TESTED_ON: hGlyT2 (Homo sapiens, UniProt Q9Y345)
Construct: host or cells: HEK293 cells stably expressing hGlyT2; crude membrane fractions
METHOD_DESCRIPTION: GlyT2 MS Binding Assays: saturation experiments with Org25543
EXPERIMENTAL_SETUP: Org25543 0.4–150 nM; mean±SEM, n=3; read-out: K d (saturation experiments)
RESULT_TYPE: Kd (nM)
Write the answer as a number in nM, unit excluded.

Query: Fill in the recorded Kd for this compound, with hGlyT2 (Homo sapiens, UniProt Q9Y345) as test system: `COc1cc(C(=O)NCC2(N(C)C)CCCC2)cc(OC)c1OCc1ccccc1`
Reply: 7.45

====

TESTED_ON: hGlyT2 (Homo sapiens, UniProt Q9Y345)
Construct: host or cells: HEK293 cells stably expressing hGlyT2; crude membrane fractions
METHOD_DESCRIPTION: GlyT2 MS Binding Assays: competition experiments with Org25543 as reporter ligand
EXPERIMENTAL_SETUP: read-out: Affinity, pKi (GlyT2 MS Binding Assays) (converted)
// Ki lookup, one value per entry

O=C(O)CCCCSc1ncnc2[nH]c(O)nc12	> 257 µM
CN(CCOc1ccc(-c2ccc3c(c2)OCO3)cc1C(C)(C)C)CC(=O)O	> 4.27 µM
CN(CC[C@@H](Oc1ccc(C(F)(F)F)cc1)c1ccccc1)CC(=O)O	> 129 µM
CN(CC[C@@H](Oc1ccc(-c2ccccc2)cc1)c1ccc(F)cc1)CC(=O)O	> 257 µM
N[C@@H](CO)C(=O)O	> 77600 µM

Query: Looking for the measured Ki of CC(C)CC(N)C(=O)O (racemic) , can you help?
Reply: > 4270 µM

Query: Looking for the measured Ki of `CNCC(=O)O` , can you help?
Reply: > 933 µM
